B1: Azoarcus group I ribozyme (parent)
chain: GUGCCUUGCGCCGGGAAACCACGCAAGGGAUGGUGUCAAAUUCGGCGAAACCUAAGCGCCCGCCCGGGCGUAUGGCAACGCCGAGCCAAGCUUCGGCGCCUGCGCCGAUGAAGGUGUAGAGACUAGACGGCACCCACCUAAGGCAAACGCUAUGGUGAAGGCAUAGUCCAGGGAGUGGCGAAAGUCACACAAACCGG

variants of: B1; assay: reverse-splicing fitness (ratio to wild type); higher = more active; in vitro selection; Mg2+ level not given
Entries are sorted into classes by reverse-splicing fitness as follows: bin 0: < 0.006; bin 1: ≥ 0.006 and < 0.03; bin 2: ≥ 0.03

In [3]: df
Out[3]:
                      mutation_string  label
0             A111C A120G C150U U176C  bin 2
1  C82U A111G A120G A145C C150A U176C  bin 1
2        C82G A120U A145U C169U U176C  bin 0
3       A111C A120G A145C C169U U176C  bin 2
4  C82G A111G A120C C150A C169U U176C  bin 1

Where would C82G A111U A145G C150G C169U U176G land among the classes by reported reverse-splicing fitness?
bin 1

Which reverse-splicing fitness band matches C82A A111C A120U A145C C150G U176C ?
bin 0

Entry C82U A120C A145C C169A U176A belongs to which category?
bin 0

Tag the class for A120G A145C C150U C169U U176C
bin 2

Category of C82U A145U , please.
bin 2
